Each recorded value in this set is attributed to patent US20230203081A1.

Test system: S. aureus ATCC BAA-1707 (MRSA)
Assay: MIC (broth microdilution or agar dilution, CLSI)
Type: cell-based
Details: Staphylococcus aureus; S. aureus HAV#016, ATCC BAA-1707; MRSA; read-out: MIC
Cut-off 0.5 µg/mL on MIC: below means t, at or above means f.

IN: For `Cc1onc(-c2ccccc2)c1C(=O)N[C@@H]1C(=O)N2[C@@H]1SC(C)(C)[C@@H]2C(=O)O` , is the recorded MIC below the cut-off of 0.5 µg/mL?
OUT: f

###

Test system: broad panel of different clinical isolates
Assay: microbe, parasite or virus in culture
Format: cell-based
Details: Enterococcus faecalis, VRE, E. faecalis HAV#606; Clinical
Protocol: Minimum inhibitory concentrations (MICs) were determined by broth microdilution method or agar dilution method following the Clinical and Laboratory Standards Institute guidelines. Standard bacterial strains were obtained from American Type Culture Collection (ATCC). Other bacterial strains were obtained from hospitals and commercial sources, so noted in Table 11. […] Specialized procedures were employed for streptococcal and anaerobic strains. […]
Below, each entry is listed with its recorded MIC.
Field: numeric (µg/mL). Do not append units.

IN: Fill in reported MIC for this entry: C[C@H]1COc2c(N3CCN(C)CC3)c(F)cc3c(=O)c(C(=O)O)cn1c23 [Levofloxacin]
OUT: 128

IN: Note down MIC recorded for CC(=O)NC[C@H]1CN(c2ccc(N3CCOCC3)c(F)c2)C(=O)O1 [Linezolid]
OUT: 2

IN: Supply recorded MIC for C[C@H]1c2cccc(O)c2C(=O)C2=C(O)[C@]3(O)C(=O)C(C(N)=O)=C(O)[C@@H](N(C)C)[C@@H]3[C@@H](O)[C@@H]21 [Doxycycline] here.
OUT: 16

###

System: broad panel of different clinical isolates
Assay: microbe, parasite or virus in culture
Assay type: cell-based
Settings: Streptococcus pneumoniae, S. pneumoniae HAV#358; Clinical
TEST READOUT: MIC (µg/mL)
Give the number; µg/mL is assumed, so skip it.

CC(=O)NC[C@H]1CN(c2ccc(N3CCOCC3)c(F)c2)C(=O)O1	4
C[C@H]1COc2c(N3CCN(C)CC3)c(F)cc3c(=O)c(C(=O)O)cn1c23	0.25
CN[C@H](CC(C)C)C(=O)N[C@H]1C(=O)N[C@@H](CC(N)=O)C(=O)N[C@H]2C(=O)N[C@H]3C(=O)N[C@H](C(=O)N[C@H](C(=O)O)c4cc(O)cc(O)c4-c4cc3ccc4O)[C@H](O)c3ccc(c(Cl)c3)Oc3cc2cc(c3O[C@@H]2O[C@H](CO)[C@@H](O)[C@H](O)[C@H]2O[C@H]2C[C@](C)(N)[C@H](O)[C@H](C)O2)Oc2ccc(cc2Cl)[C@H]1O	1

IN: Item `CC[C@H]1OC(=O)[C@H](C)[C@@H](O[C@H]2C[C@@](C)(OC)[C@@H](O)[C@H](C)O2)[C@H](C)[C@@H](O[C@@H]2O[C@H](C)C[C@H](N(C)C)[C@H]2O)[C@](C)(O)C[C@@H](C)CN(C)[C@H](C)[C@@H](O)[C@]1(C)O` : provide MIC
OUT: 2

IN: Read off the recorded MIC for CCC[C@@H]1C[C@@H](C(=O)N[C@@H]([C@H]2O[C@H](SC)[C@H](O)[C@@H](O)[C@H]2O)[C@H](C)Cl)N(C)C1 [Clindamycin, clindamycin, reference compound]
OUT: 0.25
